- Tested on: CAKI-1 renal
- MEASUREMENT_DESCRIPTION: NCI tumour cell line growth inhibition, 48 h
READOUT_TYPE: TGI

Check the records and state TGI for COc1cc(C2c3cc4c(cc3[C@@H](Nc3ccc5c(c3)OCO5)C3COC(=O)[C@H]23)OCO4)cc(OC)c1O (some centres undefined) 1.43 µM

Check the records and state TGI for CC(=O)[CH-]C(=O)c1ccccc1.CC(=O)[CH-]C(=O)c1ccccc1.CC1(C)OCC(C2OC3OC(C)(C)OC3C2[O-])O1.CC[O-].[Ti+4] (centres undefined) 40.9 µM

Check the records and state TGI for COc1ccc([C@H]2C=[N+]([O-])O[C@H](OC3CCCC3)[C@@H]2OC(C)=O)cc1OC 29.3 µM

Check the records and state TGI for O=S1(=O)c2cnccc2NC(=NCc2ccccc2)N1c1ccccc1 > 100 µM
